Tested on: Rattus norvegicus
Assay: Toxicity in Wistar albino rat assessed as induction of convulsions and tremors up to 3 g/kg, po after 8 hrs
Assay type: organism-based
Settings: in vivo, 3000 mg/kg
recorded_metric: Activity

[[record]]
structure_as_smiles = "Cc1ccc2c(Cc3nn4c(C#N)c(-c5ccc(Cl)cc5)nc4s3)coc2c1"
system_under_test = "Rattus norvegicus"
recorded_metric = "Activity"
result = "Non-toxic"

[[record]]
structure_as_smiles = "Cc1ccc2c(Cc3nn4c(CN5CCOCC5)c(-c5ccc(Cl)cc5)nc4s3)coc2c1"
system_under_test = "Rattus norvegicus"
recorded_metric = "Activity"
result = "Non-toxic"

[[record]]
structure_as_smiles = "Cc1ccc2c(Cc3nn4c(C=O)c(-c5ccc(Cl)cc5)nc4s3)coc2c1"
system_under_test = "Rattus norvegicus"
recorded_metric = "Activity"
result = "Non-toxic"

[[record]]
structure_as_smiles = "Cc1ccc2c(Cc3nn4cc(-c5ccc([N+](=O)[O-])cc5)nc4s3)coc2c1"
system_under_test = "Rattus norvegicus"
recorded_metric = "Activity"
result = "Non-toxic"

[[record]]
structure_as_smiles = "Cc1ccc2c(Cc3nn4c(CN5CCOCC5)c(-c5ccc(Br)cc5)nc4s3)coc2c1"
system_under_test = "Rattus norvegicus"
recorded_metric = "Activity"
result = "Non-toxic"

[[record]]
structure_as_smiles = "Cc1ccc2c(Cc3nn4c(/C=N/O)c(-c5ccc(Cl)cc5)nc4s3)coc2c1"
system_under_test = "Rattus norvegicus"
recorded_metric = "Activity"
result = "Non-toxic"

[[record]]
structure_as_smiles = "Cc1ccc2c(Cc3nn4cc(-c5ccc(Br)cc5)nc4s3)coc2c1"
system_under_test = "Rattus norvegicus"
recorded_metric = "Activity"
result = "Non-toxic"

[[record]]
structure_as_smiles = "Cc1ccc2c(Cc3nn4cc(-c5ccc(Cl)cc5)nc4s3)coc2c1"
system_under_test = "Rattus norvegicus"
recorded_metric = "Activity"
result = "Non-toxic"

[[record]]
structure_as_smiles = "Cc1ccc2c(Cc3nn4c(C=O)c(-c5ccc(Br)cc5)nc4s3)coc2c1"
system_under_test = "Rattus norvegicus"
recorded_metric = "Activity"
result = "Non-toxic"

[[record]]
structure_as_smiles = "Cc1ccc2c(Cc3nn4c(CO)c(-c5ccc(Cl)cc5)nc4s3)coc2c1"
system_under_test = "Rattus norvegicus"
recorded_metric = "Activity"
result = "Non-toxic"

[[record]]
structure_as_smiles = "Cc1ccc2c(Cc3nn4c(CO)c(-c5ccc(Br)cc5)nc4s3)coc2c1"
system_under_test = "Rattus norvegicus"
recorded_metric = "Activity"
result = "Non-toxic"

[[record]]
structure_as_smiles = "Cc1ccc2c(Cc3nn4c(CN5CCOCC5)c(-c5ccc([N+](=O)[O-])cc5)nc4s3)coc2c1"
system_under_test = "Rattus norvegicus"
recorded_metric = "Activity"
result = "Non-toxic"


----------
System: Rattus norvegicus
Assay: Antiinflammatory activity in Wistar albino rat assessed as inhibition of carrageenan-induced paw oedema at 100 mg/kg, po measured 3 hrs after carrageenan challenge
Format: functional
Overview of recorded inhibition in vivo at 100 mg/kg for various compounds
recorded_metric: inhibition in vivo at 100 mg/kg (%)

[[record]]
compound = "Cc1ccc2c(Cc3nn4cc(-c5ccc([N+](=O)[O-])cc5)nc4s3)coc2c1"
recorded_metric = "inhibition in vivo at 100 mg/kg"
unit = "%"
recorded_number = 40.9

[[record]]
compound = "Cc1ccc2c(Cc3nn4c(C=O)c(-c5ccc(Br)cc5)nc4s3)coc2c1"
recorded_metric = "inhibition in vivo at 100 mg/kg"
unit = "%"
recorded_number = 10.8

[[record]]
compound = "Cc1ccc2c(Cc3nn4c(CN5CCOCC5)c(-c5ccc([N+](=O)[O-])cc5)nc4s3)coc2c1"
recorded_metric = "inhibition in vivo at 100 mg/kg"
unit = "%"
recorded_number = 41.6

[[record]]
compound = "Cc1ccc2c(Cc3nn4c(CN5CCOCC5)c(-c5ccc(Br)cc5)nc4s3)coc2c1"
recorded_metric = "inhibition in vivo at 100 mg/kg"
unit = "%"
recorded_number = 43.4

[[record]]
compound = "Cc1ccc2c(Cc3nn4cc(-c5ccc(Br)cc5)nc4s3)coc2c1"
recorded_metric = "inhibition in vivo at 100 mg/kg"
unit = "%"
recorded_number = 10.8

[[record]]
compound = "Cc1ccc2c(Cc3nn4c(/C=N/O)c(-c5ccc(Cl)cc5)nc4s3)coc2c1"
recorded_metric = "inhibition in vivo at 100 mg/kg"
unit = "%"
recorded_number = 10

[[record]]
compound = "Cc1ccc2c(Cc3nn4cc(-c5ccc(Cl)cc5)nc4s3)coc2c1"
recorded_metric = "inhibition in vivo at 100 mg/kg"
unit = "%"
recorded_number = 51.7

[[record]]
compound = "CC(C)Cc1ccc(C(C)C(=O)O)cc1 (stereo not drawn) [IBUPROFEN]"
recorded_metric = "inhibition in vivo at 100 mg/kg"
unit = "%"
recorded_number = 60


----------
Test system: Rattus norvegicus
Assay: Antiinflammatory activity in Wistar albino rat assessed as inhibition of carrageenan-induced paw oedema at 100 mg/kg, po measured 1 hr after carrageenan challenge
Assay type: functional
recorded_metric: inhibition in vivo at 100 mg/kg (%)

[[record]]
structure_as_smiles = "Cc1ccc2c(Cc3nn4cc(-c5ccc(Br)cc5)nc4s3)coc2c1"
recorded_number = 10.3

[[record]]
structure_as_smiles = "Cc1ccc2c(Cc3nn4c(CO)c(-c5ccc(Br)cc5)nc4s3)coc2c1"
recorded_number = 7.2

[[record]]
structure_as_smiles = "Cc1ccc2c(Cc3nn4c(/C=N/O)c(-c5ccc(Cl)cc5)nc4s3)coc2c1"
recorded_number = 5.19

[[record]]
structure_as_smiles = "Cc1ccc2c(Cc3nn4cc(-c5ccc(Cl)cc5)nc4s3)coc2c1"
recorded_number = 13.4

[[record]]
structure_as_smiles = "Cc1ccc2c(Cc3nn4cc(-c5ccc([N+](=O)[O-])cc5)nc4s3)coc2c1"
recorded_number = 13.4


Reference source: ChEMBL document CHEMBL1140193
